TARGET_OF_ASSAY: pooled human IgG (human IgG1, 2, 3 and 4)
MEASURED_ATTRIBUTE: Enzyme Activity Endpoint Assay: Fc (ng/µL)
Numeric only. Scale: ng/µL

Ask: Quote Enzyme Activity Endpoint Assay: Fc reported for PRT-566 (protein) MANQEIRYSEETPSTITSVWTKGVTPPTQFIQNEDVLHAPYIANQGWYDITKTFNGKDDLLCGAATAGNMLHWWFDQNKEQIENYLKKHPEKQKINFNGEQMFDVKEAIDTKDSQTDSALFEYFKDKAFPYLSTKHLGVFPDHVIDMFINGYRLSLTNHGPTPVKRGTKDPRGGIFDAVFTRGDQSKLLTSRHDFKEKTLNEISDLIKQELTEGKALGLSHTYANVRINHVINLWGADFNAEGNLEAIYVTDSDSNASIGMKKYYVGVNSAGKVAISAKEIEGDNIGAQVLGLFTLSTGQDIWNQTNLEHHHHHH please.
Reply: 366

Ask: Quote Enzyme Activity Endpoint Assay: Fc reported for PRT-514 (protein) MITSVWTKGVTPPTDFIKGEDVFHAPYKAGQGWYDITKAFDGGDDLLCGAATAGNMLHWWFDQNKEEIEAYLKKHPEKQKIMFGDQELLDVRKVINTKDSQTNSALFNYFKDKAFPNLSARRLGVMPDLVLDMFINGYYLNVYKTQTTDVNRQEQTKDRRGGIFDAVFGRGDQTKLLTERHDFKEKTLNEISQLIKQELTEGKALGLSHTYANVRINHVINLWGADFDAEGNLEAIYVTDSDSNASIGMKKYFVGVNSAGKVAISAKEIKEDNIGAQVLGLFTLSTGQKIWNKTNLEHHHHHH please.
Reply: 37
